molecular target: SST5 (Homo sapiens); test: Hit Hunter cAMP XS+ assay, SST5 activation via Gi (reduction of forskolin-stimulated cAMP); type: cell-based; conditions: reduction of forskolin-stimulated cAMP; 4-parameter logistic fit; read-out: SST5 pEC50 (converted)
Sequence (P35346 whole entry): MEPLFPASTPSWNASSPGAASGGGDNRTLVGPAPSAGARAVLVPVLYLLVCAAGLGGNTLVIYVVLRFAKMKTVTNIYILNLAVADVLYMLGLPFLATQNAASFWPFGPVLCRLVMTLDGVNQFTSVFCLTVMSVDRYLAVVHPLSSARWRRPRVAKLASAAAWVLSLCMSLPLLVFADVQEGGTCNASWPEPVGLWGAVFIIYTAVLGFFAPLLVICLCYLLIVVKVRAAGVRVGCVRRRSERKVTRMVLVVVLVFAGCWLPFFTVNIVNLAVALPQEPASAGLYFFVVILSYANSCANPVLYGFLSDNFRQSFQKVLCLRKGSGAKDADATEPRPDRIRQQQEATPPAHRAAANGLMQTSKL
*1 amine or outer side, *2 acyl side, *3 side chain or, on linkers, in order; H or OH if unused. Where a SMILES comes first, the peptide text is derived from it. Side-chain parts run from the residue outwards. [ ]: non-standard residue; d: D form. The star is where a group is joined. Ala(piperidin-4-yl) = O=C([C@H](CC1CCN([*:3])CC1)N[*:1])[*:2]; dTrp(4-OMe) = COc1cccc2[nH]cc(C[C@@H](N)C(=O)O)c12; X2 = O=C([C@@H]1C[C@@H](Oc2ccncc2)CN1[*:1])[*:2]; Ala(piperazin-1-yl) = N[C@@H](CN1CCNCC1)C(=O)O; Phe(4-Cl) = N[C@@H](Cc1ccc(Cl)cc1)C(=O)O; Ethylenediamine = C(CN[*:2])N[*:1]; d(hPhe) = N[C@H](CCc1ccccc1)C(=O)O; Hyp = O=C(O)[C@@H]1C[C@@H](O)CN1; hPhe = N[C@@H](CCc1ccccc1)C(=O)O; 3Pal = N[C@@H](Cc1cccnc1)C(=O)O; Cyclohexylmethyl = C1CCC(C*)CC1; Phg = N[C@H](C(=O)O)c1ccccc1; CO = O=C([*:1])[*:2]; Bn = c1ccc(C*)cc1
Measurement label: EC50 (nM)
Answers are plain numbers, in nM.

The following compounds have reported results that may help.
Request: Which EC50 is listed for NCCNC(=O)O[C@@H]1C[C@H]2C(=O)N[C@H](CCc3ccccc3)C(=O)N[C@H](Cc3c[nH]c4ccccc34)C(=O)N[C@@H](CN3CCNCC3)C(=O)N[C@@H](Cc3ccc(OCC4CCCCC4)cc3)C(=O)N[C@@H](Cc3cccnc3)C(=O)N2C1 [Example 71] (cyclo([3Pal][Hyp]([CO-Ethylenediamine])[d(hPhe)][dW][Ala(piperazin-1-yl)]Y(Cyclohexylmethyl))) ?
Response: 63.1

Request: Repeat for the following compound: NCCNC(=O)O[C@@H]1C[C@H]2C(=O)N[C@@H](CCc3ccccc3)C(=O)N[C@H](Cc3c[nH]c4ccccc34)C(=O)N[C@@H](CC3CCNCC3)C(=O)N[C@@H](Cc3ccc(OCc4ccccc4)cc3)C(=O)N[C@@H](Cc3ccc(Cl)cc3)C(=O)N2C1 [Example 42] (cyclo([Hyp]([CO-Ethylenediamine])[hPhe][dW][Ala(piperidin-4-yl)]Y(Bn)[Phe(4-Cl)]))
Response: 0.251

Request: Param item: NCCNC(=O)O[C@@H]1C[C@H]2C(=O)N[C@@H](CCc3ccccc3)C(=O)N[C@H](Cc3c[nH]c4ccccc34)C(=O)N[C@@H](CN3CCNCC3)C(=O)N[C@@H](Cc3ccc(OCc4ccccc4)cc3)C(=O)N3CCC[C@H]3C(=O)N2C1 [Example 37] (cyclo([Hyp]([CO-Ethylenediamine])[hPhe][dW][Ala(piperazin-1-yl)]Y(Bn)P))
Response: 2

Request: Input NCCNC(=O)O[C@@H]1C[C@H]2C(=O)N[C@@H](c3ccccc3)C(=O)N[C@H](Cc3c[nH]c4ccccc34)C(=O)N[C@@H](CN3CCNCC3)C(=O)N[C@@H](Cc3ccc(OCC4CCCCC4)cc3)C(=O)N[C@@H](Cc3ccccc3)C(=O)N2C1 [Example 27] (cyclo(F[Hyp]([CO-Ethylenediamine])[Phg][dW][Ala(piperazin-1-yl)]Y(Cyclohexylmethyl)))
Response: 2.51

Parameter requested: EC50. Apply to each item below.
1. COc1cccc2[nH]cc(C[C@H]3NC(=O)[C@H](c4ccccc4)NC(=O)[C@@H]4C[C@@H](OC(=O)NCCN)CN4C(=O)[C@H](Cc4ccccc4)NC(=O)[C@H](Cc4ccc(OCc5ccccc5)cc4)NC(=O)[C@H](CN4CCNCC4)NC3=O)c12 [Example 64] (cyclo(F[Hyp]([CO-Ethylenediamine])[Phg][dTrp(4-OMe)][Ala(piperazin-1-yl)]Y(Bn)))
2. O=C1N[C@@H](Cc2ccc(OCc3ccccc3)cc2)C(=O)N[C@@H](Cc2cccnc2)C(=O)N2C[C@H](Oc3ccncc3)C[C@H]2C(=O)N[C@H](CCc2ccccc2)C(=O)N[C@@H](Cc2c[nH]c3ccccc23)C(=O)N[C@H]1CC1CCNCC1 [Example 24] (cyclo([3Pal][X2][d(hPhe)]W[Ala(piperidin-4-yl)]Y(Bn)))

Response:
15.8
100
